# Test system: Acinetobacter baumannii
# MEASUREMENT DESCRIPTION: Antibacterial activity against Acinetobacter baumannii ATCC 19606 assessed as growth inhibition by broth dilution method
# Type: functional
Some compounds, each annotated with its measured MIC.

{"SMILES DATA": "CCCCCCCCCC(=O)N[C@@H](C(=O)N[C@H](CCN)C(=O)NCC(=O)N[C@H](CO)C(=O)N[C@H](Cc1c[nH]c2ccccc12)C(=O)N[C@@H](CO)C(=O)N[C@@H](CCN)C(=O)N[C@H](CCN)C(=O)N[C@@H](Cc1ccccc1)C(=O)N[C@@H](CCC(=O)O)C(=O)N[C@H](C(=O)N[C@@H](C(=O)N[C@@H](C)C(=O)O)[C@@H](C)CC)C(C)C)C(C)C", "TEST TARGET": "Acinetobacter baumannii", "MIC [mg/L]": 12.5}
{"SMILES DATA": "CC[C@H](C)[C@@H](NC(=O)[C@@H](NC(=O)[C@H](CCC(=O)O)NC(=O)[C@H](Cc1ccccc1)NC(=O)[C@@H](CCN)NC(=O)[C@H](CCN)NC(=O)[C@H](CO)NC(=O)[C@@H](Cc1c[nH]c2ccccc12)NC(=O)[C@@H](CO)NC(=O)CNC(=O)[C@@H](CCN)NC(=O)[C@H](NC(=O)CC12CC3CC(CC(C3)C1)C2)C(C)C)C(C)C)C(=O)N[C@@H](C)C(=O)O", "TEST TARGET": "Acinetobacter baumannii", "MIC [mg/L]": 12.5}
{"SMILES DATA": "CC[C@H](C)CC[C@@H](O)CC(=O)N[C@@H](C(=O)N[C@H](CCN)C(=O)NCC(=O)N[C@H](CO)C(=O)N[C@H](Cc1c[nH]c2ccccc12)C(=O)N[C@@H](CO)C(=O)N[C@@H](CCN)C(=O)N[C@H](CCN)C(=O)N[C@@H](Cc1ccccc1)C(=O)N[C@@H](CCC(=O)O)C(=O)N[C@H](C(=O)N[C@@H](C(=O)N[C@@H](C)C(=O)O)[C@@H](C)CC)C(C)C)C(C)C", "TEST TARGET": "Acinetobacter baumannii", "MIC [mg/L]": 12.5}
{"SMILES DATA": "CCCCCC(=O)N[C@@H](C(=O)N[C@H](CCN)C(=O)NCC(=O)N[C@H](CO)C(=O)N[C@H](Cc1c[nH]c2ccccc12)C(=O)N[C@@H](CO)C(=O)N[C@@H](CCN)C(=O)N[C@H](CCN)C(=O)N[C@@H](Cc1ccccc1)C(=O)N[C@@H](CCC(=O)O)C(=O)N[C@H](C(=O)N[C@@H](C(=O)N[C@@H](C)C(=O)O)[C@@H](C)CC)C(C)C)C(C)C", "TEST TARGET": "Acinetobacter baumannii", "MIC [mg/L]": 25}

###

# System: Acinetobacter baumannii
# MEASUREMENT DESCRIPTION: Antibacterial activity against Acinetobacter baumannii ATCC 19606 assessed as growth inhibition by broth dilution method
# Type: functional
Some molecules, each annotated with its measured MIC.

{"SMILES DATA": "CCCCCCCCCCCCCC(=O)N[C@@H](C(=O)N[C@H](CCN)C(=O)NCC(=O)N[C@H](CO)C(=O)N[C@H](Cc1c[nH]c2ccccc12)C(=O)N[C@@H](CO)C(=O)N[C@@H](CCN)C(=O)N[C@H](CCN)C(=O)N[C@@H](Cc1ccccc1)C(=O)N[C@@H](CCC(=O)O)C(=O)N[C@H](C(=O)N[C@@H](C(=O)N[C@@H](C)C(=O)O)[C@@H](C)CC)C(C)C)C(C)C", "MIC": "> 100 µg/mL"}
{"SMILES DATA": "CCCCCCCCCCC(=O)N[C@@H](C(=O)N[C@H](CCN)C(=O)NCC(=O)N[C@H](CO)C(=O)N[C@H](Cc1c[nH]c2ccccc12)C(=O)N[C@@H](CO)C(=O)N[C@@H](CCN)C(=O)N[C@H](CCN)C(=O)N[C@@H](Cc1ccccc1)C(=O)N[C@@H](CCC(=O)O)C(=O)N[C@H](C(=O)N[C@@H](C(=O)N[C@@H](C)C(=O)O)[C@@H](C)CC)C(C)C)C(C)C", "MIC": "12.5 µg/mL"}
{"SMILES DATA": "CC[C@H](C)[C@@H](NC(=O)[C@@H](NC(=O)[C@H](CCC(=O)O)NC(=O)[C@H](Cc1ccccc1)NC(=O)[C@@H](CCN)NC(=O)[C@H](CCN)NC(=O)[C@H](CO)NC(=O)[C@@H](Cc1c[nH]c2ccccc12)NC(=O)[C@@H](CO)NC(=O)CNC(=O)[C@@H](CCN)NC(=O)[C@H](NC(C)=O)C(C)C)C(C)C)C(=O)N[C@@H](C)C(=O)O", "MIC": "> 100 µg/mL"}
